procedure.summary: yeast display, Sf9 membrane polyspecificity reagent, FACS + sequencing; frameworks hold sequencing errors
measured.attribute: polyreactivity (PSR sort gate)

INSERT INTO assay_data (query_sequence, measured_attribute, result) VALUES
  ('QVQLVESGGGLVQAGGSLRLTCAASGSTFKYYAMGWYRQAPGKERELVAAINQSGGNTFYAESVKGRFTISRDNAKNSVSLQINSLKPEDTAVYYCAADYYFYTIVSSEMDYWGQGSQVTVSS', 'polyreactivity (PSR sort gate)', 'high polyreactivity'),
  ('QVQLVESGGGLVQAGGSLRLSCAASGSTFRRYTMGWYRQAPGKERELVAAISRSAGSTSYADSVKGRFTISRDNAKNTVYLQMNSLKPEDTAVYYCNARVPLRQYSNYYWGQGTQVTVSS', 'polyreactivity (PSR sort gate)', 'high polyreactivity'),
  ('QVQLVESGVGLVKAGGSLRLSCATSGLILYRYVMGWYRQAAGKERQLVAAISSSGGRTYYADSVKGRFTISRDNAKNTVYLQMNSLKPEDTAVYYCAKRRSDARRGYDYLGQGTQVTVSS', 'polyreactivity (PSR sort gate)', 'high polyreactivity'),
  ('QVQLVESGGGLVQAGGSLRLSCAASGSPFRTYAIGWYRQAPGKERELVASIDSTGSTNYADSVKGRFTISRDNAKNTVYLQMNCLKAEVTAVYYCAAETYSYPPFYAYDYWGQGTQVTVSS', 'polyreactivity (PSR sort gate)', 'low polyreactivity'),
  ('QVQLVESGGGLVQAGGSLRLSCAASGSTFYLYAMGWYRQAPGKERELVAAISRGGTTYYADSVKGRFTISRDNAKNTVYLQMNSLKPEETAVYYCNARYTSRRSRRPYYYWGQGTQVTVSS', 'polyreactivity (PSR sort gate)', 'high polyreactivity');

q: Quick one: polyreactivity (PSR sort gate) for `QVQLVESGGGLVQAGGSLRLSCAASGRTFGSNAMGWYRQAPGKERELVAAITSGGGTYYADSVKGRFTISRDNAKNTVYLQMNSLKPEDTAVYYCNKLGTSFRRDYGSWGQGTQVTVSS` ?
a: low polyreactivity

q: What value of polyreactivity (PSR sort gate) has been recorded for this entry: `QVQLVESGGGLVQAGGSLRLSCAASGFTFKRYAMGWYRQAPGKERELVAAISYSGGSTYYADSVKGRFTISRDNAKNTVYLQMNSLKPEDTAVYYCAALPGRRLWTYDYWGQGTQVTVSS`
a: high polyreactivity

q: Requested field: polyreactivity (PSR sort gate). Item: `QVQLVESGGGVDQAGGSLRLSGAASGSTFHSYTMGWYRQAPGKERELVAAITRSGGSTYYADSGKGRFTISRETAKNTVYLQMNSQKPEDTAVYYCAVPYCRNSRLVDLAYHFYYWGQGTQVTVSS`
a: high polyreactivity

q: # polyreactivity (PSR sort gate) lookup, item `QVQLVESGRGLVQAGGSLRLSCAASGSTFIPYVMGWYRKAPGKEREFVAAIRWSGGRTRYADSVKGRFTLSRDNAKNTVYLQMNSLKPEDTAVYYCAAYRLSKPFYKYDYWGQGTQVTVSS`
a: high polyreactivity

q: # polyreactivity (PSR sort gate) lookup, item `QVQLVESGGGLVQAGGSLRLSCAASGRIFKYYAMGWYRQSPGKERELVAAITSSGGSTYYADSVKGRFTISRDNAKNTVYLQMNRLKPEDTAVYYCAARGPKQLYPGYIYGYWGQGTQVTVSS`
a: low polyreactivity

q: polyreactivity (PSR sort gate) lookup needed for `QVQLVESGGGLVQAGGSLRLSCAASGRTFYLYTMGWYRQAPGKERELVAAISRGGRTYADSVKGRFTISRDNAKNTVYLQMNSLKPEDTAVYYCAAESVYQGWSYQHGKGDYWGQGTQVTVSS` , thanks.
a: low polyreactivity

The origin of these recorded values is the nanobody polyreactivity screen of Harvey et al. (2022).
